Hey, just so you know, these numbers are from patent US10683294B2.

# tested.system: UniProt:P21730
# protocol.description: Chemotaxis assay (inhibition of C5aR mediated migration towards C5a)
# setup.conditions: inhibition in the chemotaxis assay (Example 14 B.3); U937 or neutrophil cells, 0.03 nM C5a
# Description: U937 cells are a monocytic cell line which express C5aR, and are available from ATCC (VA). […] Optionally, compounds may be further assayed for their ability to inhibit chemotaxis in cells. […] The chambers are incubated 1.5 hours at 37° C., and the number of cells in the lower chamber quantified either by direct cell counts in five high powered fields per well or by the CyQuant assay (Molecular Probes), a fluorescent dye method that measures nucleic acid content and microscopic observation.
pIC50: −log10 of the molar value.
experimental.readout: pIC50

Any idea what its pIC50 is? The compound is `CCc1cccc(CC)c1-n1nc2c(c1-c1ccc(F)c3[nH]cc(Cl)c13)CN(Cc1ccccc1C(F)(F)F)C2(C)C`
> 8.30

Queued: `CCc1cccc(CC)c1-n1nc2c(c1-c1ccc(F)c3[nH]ccc13)CN(Cc1cccnc1)C2(C)C`
6.30 to 7.30

How about `CCc1cccc(CC)c1-n1nc2c(c1-c1ccc(F)c3[nH]ccc13)CN(Cc1ccc(Cl)cc1Cl)C2(C)C` ?
7.30 to 8.30

Same for CCOC(=O)C(c1ccccc1)N1Cc2c(nn(-c3c(CC)cccc3CC)c2-c2ccc3[nH]ccc3c2)C1(C)C (centres unmarked)
7.30 to 8.30

# repeat for `CCc1cccc(CC)c1-n1nc2c(c1-c1ccc(F)c3[nH]ccc13)CN(Cc1cccc(F)c1)C2(C)C`
7.30 to 8.30

Then Cc1cccc(C)c1-n1nc2c(c1-c1ccc3[nH]ccc3c1)CN(C(=O)C(C)C1CCCCC1)C2 (centres unmarked) ?
6.30 to 7.30

Another: `CCc1cccc(CC)c1-n1nc2c(c1-c1c(F)cc(F)c3[nH]ccc13)CN(Cc1ccc(C(F)(F)F)cc1C(F)(F)F)C2(C)C`
> 8.30

Same again, this time with `CCc1cccc(CC)c1-n1nc2c(c1-c1ccc(F)c3[nH]ccc13)CN(C(=O)c1ccccn1)C2(C)C`
6.30 to 7.30

Subsequent entry: `CCc1cccc(CC)c1-n1nc2c(c1-c1cc(F)c(OC)c3[nH]ccc13)CN(Cc1ccc(C(F)(F)F)cc1C(F)(F)F)C2(C)C`
> 8.30

Another compound: `CCc1cccc(CC)c1-n1nc2c(c1-c1cccc3[nH]ccc13)CN(Cc1cc(C(F)(F)F)ccc1C(F)(F)F)C2(C)C`
7.30 to 8.30

Please give the result for `CCc1cccc(CC)c1-n1nc2c(c1-c1cccc3[nH]cc(C#N)c13)CN(Cc1ccc(C(F)(F)F)cc1C(F)(F)F)C2(C)C` too.
7.30 to 8.30

Field entry: `CCc1cccc(CC)c1-n1nc2c(c1-c1cccc3[nH]ccc13)CN(Cc1ccccc1C(F)(F)F)C2(C)C`
7.30 to 8.30

Record: `CCc1cccc(CC)c1-n1nc2c(c1-c1ccc(C)c3[nH]ccc13)CN(Cc1ccc(C(F)(F)F)cc1C(F)(F)F)C2(C)C`
> 8.30

Query `CCc1cccc(CC)c1-n1nc2c(c1-c1ccc(F)c3[nH]ccc13)CN(CC(C)(C)O)C2(C)C` next
6.30 to 7.30

---

# tested.system: C5aR (Homo sapiens (Human))
# protocol.description: Chemotaxis assay (inhibition of C5aR mediated migration towards C5a)
# Assay type: cell-based
# setup.conditions: inhibition in the chemotaxis assay (Example 14 B.3); U937 or neutrophil cells, 0.03 nM C5a
Please respond with reported IC50 for every item in the list.

Fill in the recorded IC50 for this molecule, with C5aR (Homo sapiens (Human)) as test system: `Cc1cccc(C)c1-n1nc2c(c1-c1ccc3[nH]ncc3c1)CN(C(=O)OC(C)(C)C)C2`
≥ 500 nM

Also, `Cc1cccc(C)c1-n1nc2c(c1-c1ccc3[nH]ccc3c1)CN(C(=O)NC(C)(C)C)C2` please.
≥ 500 nM

Another molecule to check: `CCc1cccc(CC)c1-n1nc2c(c1-c1ccc(F)c3[nH]ccc13)CN(Cc1ccc(F)cc1Cl)C2(C)C`
5 to 50 nM

Same question for `CCc1cccc(CC)c1-n1nc2c(c1-c1ccc(F)c3[nH]ccc13)CN(C(=O)NC(C)C)C2(C)C` please.
≥ 500 nM

---

# tested.system: C5aR (Homo sapiens (Human), UniProt P21730)
# Sequence (P21730 whole entry): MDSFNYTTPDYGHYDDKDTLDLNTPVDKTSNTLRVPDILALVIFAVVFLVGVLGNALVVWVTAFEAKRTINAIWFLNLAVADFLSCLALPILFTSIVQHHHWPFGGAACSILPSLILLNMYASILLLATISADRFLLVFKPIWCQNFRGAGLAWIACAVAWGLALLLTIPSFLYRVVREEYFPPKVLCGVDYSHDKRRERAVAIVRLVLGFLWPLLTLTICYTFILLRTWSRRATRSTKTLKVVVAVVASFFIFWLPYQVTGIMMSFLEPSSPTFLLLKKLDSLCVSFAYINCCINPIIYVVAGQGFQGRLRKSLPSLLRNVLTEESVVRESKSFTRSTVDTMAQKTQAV
# protocol.description: Chemotaxis assay (inhibition of C5aR mediated migration towards C5a)
# setup.conditions: inhibition in the chemotaxis assay (Example 14 B.3); U937 or neutrophil cells, 0.03 nM C5a
experimental.readout: IC50

Need IC50, item `CCc1cccc(CC)c1-n1nc2c(c1-c1ccc(F)c3[nH]ccc13)CN(Cc1ccccc1F)C2(C)C`
5 to 50 nM

Try the compound `CCc1cccc(CC)c1-n1nc2c(c1-c1ccc(F)c3[nH]ccc13)CN(C(=O)CC(C)C)C2(C)C`
5 to 50 nM

Okay, and `CCc1cccc(CC)c1-n1nc2c(c1-c1ccc(F)c3[nH]ccc13)CN(C(=O)CNC(=O)OC(C)(C)C)C2(C)C` ?
50 to 500 nM

Also need `CCc1cccc(CC)c1-n1nc2c(c1-c1ccc(F)c3[nH]ccc13)CN(Cc1ccc(C(F)(F)F)cc1C(F)(F)F)C2(C)C` , thanks.
5 to 50 nM

---

# tested.system: C5aR (Homo sapiens (Human), UniProt P21730)
# protocol.description: Chemotaxis assay (inhibition of C5aR mediated migration towards C5a)
# setup.conditions: inhibition in the chemotaxis assay (Example 14 B.3); U937 or neutrophil cells, 0.03 nM C5a
# Experimental: U937 cells are a monocytic cell line which express C5aR, and are available from ATCC (VA). […] Optionally, compounds may be further assayed for their ability to inhibit chemotaxis in cells. […] The chambers are incubated 1.5 hours at 37° C., and the number of cells in the lower chamber quantified either by direct cell counts in five high powered fields per well or by the CyQuant assay (Molecular Probes), a fluorescent dye method that measures nucleic acid content and microscopic observation.
pIC50: −log10 of the molar value.
experimental.readout: pIC50

Would you mind telling me what pIC50 value was observed for CCc1cccc(CC)c1-n1nc2c(c1-c1cc(F)cc3[nH]ccc13)CN(Cc1ccc(C(F)(F)F)cc1C(F)(F)F)C2(C)C [Compound 1.031] ?
7.30 to 8.30

Check CCc1cccc(CC)c1-n1nc2c(c1-c1ccc(F)c3[nH]ccc13)CN(Cc1ccc(F)cc1F)C2(C)C [Compound 1.013] too.
7.30 to 8.30

Check Cc1cccc(C)c1-n1nc2c(c1-c1ccc3[nH]cnc3c1)CN(CC(C)(C)C)C2 [Compound 1.051] too.
≤ 6.30

Would you kindly repeat that for CCOC(C)(C)C(=O)N1Cc2nn(-c3c(C)cccc3C)c(-c3ccc4[nH]ccc4c3)c2C1 [Compound 1.054] ?
≤ 6.30

---

Assign pIC50 to each entry below.
# tested.system: UniProt:P21730
# protocol.description: Chemotaxis assay (inhibition of C5aR mediated migration towards C5a)
# setup.conditions: inhibition in the chemotaxis assay (Example 14 B.3); U937 or neutrophil cells, 0.03 nM C5a
pIC50: −log10 of the molar value.

Bench note: what pIC50 did CCc1cccc(CC)c1-n1nc2c(c1-c1ccc3[nH]ccc3c1)CN(C(=O)OC(C)(C)C)C2(C)C [Compound 1.048] show?
7.30 to 8.30

Also Cc1cccc(C)c1-n1nc2c(c1-c1ccc3[nH]ccc3c1)CN(C(=O)CC(C)(C)C)C2 [Compound 1.061] ?
≤ 6.30

Same again, this time with Cc1cccc(C)c1-n1nc2c(c1-c1ccc3[nH]ccc3c1)CN(C(=O)CC1CCCC1)C2 [Compound 1.057]
≤ 6.30

Now give it for CCc1cccc(CC)c1-n1nc2c(c1-c1ccc(F)c3[nH]cc(Cl)c13)CN(Cc1ccc(C(F)(F)F)cc1C(F)(F)F)C2(C)C [Compound 1.011] too.
7.30 to 8.30

Same lookup for Cc1cccc(C)c1-n1nc2c(c1-c1ccc3[nH]ccc3c1)CN(C(=O)c1ccc(C(C)(C)C)cc1)C2 [Compound 1.064] , please.
≤ 6.30

Ok, now CCc1cccc(CC)c1-n1nc2c(c1-c1cccc3[nH]ccc13)CN(C(=O)Cn1nc(C(F)(F)F)cc1C)C2(C)C [Compound 1.040]
≤ 6.30

// repeat for CCc1cccc(CC)c1-n1nc2c(c1-c1ccc(F)c3[nH]ccc13)CN(Cc1ccccn1)C2(C)C [Compound 1.019] and report
7.30 to 8.30

---

# tested.system: UniProt:P21730
# protocol.description: Chemotaxis assay (inhibition of C5aR mediated migration towards C5a)
# Format: cell-based
# setup.conditions: inhibition in the chemotaxis assay (Example 14 B.3); U937 or neutrophil cells, 0.03 nM C5a
pIC50: −log10 of the molar value.
experimental.readout: pIC50

Quick check: pIC50 of `Cc1cccc(C)c1-n1nc2c(c1-c1ccc3[nH]ccc3c1)CN(C(=O)CCC1CCCC1)C2` ?
≤ 6.30

Okay, and `CCc1cccc(CC)c1-n1nc2c(c1-c1ccc3[nH]ccc3c1)CN(Cc1ccccc1C(F)(F)F)C2(C)C` ?
7.30 to 8.30

What about `Cc1cccc(C)c1-n1nc2c(c1-c1ccc3[nH]ccc3c1)CN(C(=O)OC(C)(C)C)C2=O` ?
≤ 6.30

`Cc1cccc(C)c1-n1nc2c(c1-c1ccc3[nH]ccc3c1)CN(C(=O)C1CCCC1)C2` , same question.
≤ 6.30

Moving on to `CCc1cccc(CC)c1-n1nc2c(c1-c1cccc3[nH]ccc13)CN(Cc1ccc(C(F)(F)F)cc1C(F)(F)F)C2(C)C`
7.30 to 8.30

Input `Cc1cccc(C)c1-n1nc2c(c1-c1ccc3[nH]ccc3c1)CN(C(=O)c1ccccc1)C2`
≤ 6.30

Another molecule: `CCc1cccc(CC)c1-n1nc2c(c1-c1c(F)ccc3[nH]ccc13)CN(Cc1ccc(C(F)(F)F)cc1C(F)(F)F)C2(C)C`
7.30 to 8.30
